Target: Human KIF18A (amino acid sequence 1-417) (Homo sapiens)
Sequence (Q8NI77 1-417): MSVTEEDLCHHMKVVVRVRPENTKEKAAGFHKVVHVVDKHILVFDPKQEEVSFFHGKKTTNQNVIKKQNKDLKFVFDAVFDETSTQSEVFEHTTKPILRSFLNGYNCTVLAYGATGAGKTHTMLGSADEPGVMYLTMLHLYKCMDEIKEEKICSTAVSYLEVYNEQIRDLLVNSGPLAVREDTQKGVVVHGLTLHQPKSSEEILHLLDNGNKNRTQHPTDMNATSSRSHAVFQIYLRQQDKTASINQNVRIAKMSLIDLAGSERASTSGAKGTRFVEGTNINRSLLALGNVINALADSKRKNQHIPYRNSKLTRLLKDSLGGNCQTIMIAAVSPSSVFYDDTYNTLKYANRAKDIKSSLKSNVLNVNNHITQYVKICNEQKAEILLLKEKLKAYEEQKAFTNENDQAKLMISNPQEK
Experiment: Enzymatic activity test (ADP-Glo, microtubule-stimulated KIF18A ATPase)
Details: 60 μg/mL microtubules, 25 μM ATP, 2.5 nM KIF18A protein, 120 min at ambient temperature, read-out: KIF18A_nM
Please go through the items and note down their pIC50.
Bear in mind: pIC50 is minus log10 of a mol/L concentration; give just that figure.

q: # pIC50 lookup, item Nc1cc2cc(NC(=O)c3ccc(NS(=O)(=O)CCO)cc3N3CCC4(CC3)CC4)nc(N3CCC(F)(F)CC3)c2nn1 [Example 62]
a: 7.55

q: # pIC50 lookup, item CC(CO)S(=O)(=O)Nc1ccc(C(=O)Nc2cc3cccnc3c(N3[C@H](C)COC[C@H]3C)n2)c(N2CCC3(CC2)CC3)c1 (some centres unmarked) [Example 102]
a: 6.82

q: # pIC50 lookup, item CCOC(=O)c1cnc2c(N3CCC(F)(F)CC3)cc(NC(=O)c3ccc(NS(=O)(=O)CCO)cc3N3CCC4(CC3)CC4)cc2c1 [Example 86]
a: 6.65

q: # pIC50 lookup, item Cc1nc2c(N3CCC(F)(F)CC3)nc(NC(=O)c3ccc(NS(=O)(=O)CCO)cc3N3CCC4(CC3)CC4)cn2c1C [Example 15]
a: 6.69

q: # pIC50 lookup, item COc1ccc2cc(NC(=O)c3ccc(NS(=O)(=O)CCO)cc3N3CCC4(CC3)CC4)nc(N3CCC(F)(F)CC3)c2n1 [Example 52]
a: 6.83

q: # pIC50 lookup, item O=C(Nc1cc2cccnc2c(N2CCC(F)(F)CC2)n1)c1c(F)cc(NS(=O)(=O)CCO)cc1N1CCC2(CC1)CC2 [Example 46]
a: 7.41

q: # pIC50 lookup, item O=C(Nc1cn2cnnc2c(N2CCC(F)(F)CC2)n1)c1ccc(NS(=O)(=O)CCO)cc1N1CCC2(CC1)CC2 [Example 19]
a: 7.89

q: # pIC50 lookup, item CNc1ccc2cc(NC(=O)c3ccc(NS(=O)(=O)CCO)cc3N3CCC4(CC3)CC4)c(F)c(N3CCC(F)(F)CC3)c2n1 [Example 79]
a: 6.03

q: # pIC50 lookup, item O=C(Nc1cn2ncnc2c(N2CCC(F)(F)CC2)n1)c1ccc(NS(=O)(=O)CCO)cc1N1CCC2(CC1)CC2 [Example 16]
a: 7.54

q: # pIC50 lookup, item O=C(Nc1cc2ccsc2c(N2CCC(F)(F)CC2)n1)c1ccc(NS(=O)(=O)CCO)cc1N1CCC2(CC1)CC2 [Example 28]
a: 7.34

q: # pIC50 lookup, item O=C(Nc1cc2nccnc2c(N2CCC(F)(F)CC2)n1)c1ccc(NS(=O)(=O)CCO)cc1N1CCC2(CC1)CC2 [Example 59]
a: 7.42

q: # pIC50 lookup, item O=C(Nc1cc2cccnc2c(C2CCN(CC(F)(F)F)CC2)n1)c1ccc(NS(=O)(=O)CCO)cc1N1CCC2(CC1)CC2 [Example 50]
a: 5.83

q: # pIC50 lookup, item O=C(Nc1nc2c(c(N3CCC(F)(F)CC3)n1)CNC2)c1ccc(NS(=O)(=O)CCO)cc1N1CCC2(CC1)CC2 [Example 7]
a: 7.00
